# assayed system: UniProt P30291
# Sequence (P30291 whole entry): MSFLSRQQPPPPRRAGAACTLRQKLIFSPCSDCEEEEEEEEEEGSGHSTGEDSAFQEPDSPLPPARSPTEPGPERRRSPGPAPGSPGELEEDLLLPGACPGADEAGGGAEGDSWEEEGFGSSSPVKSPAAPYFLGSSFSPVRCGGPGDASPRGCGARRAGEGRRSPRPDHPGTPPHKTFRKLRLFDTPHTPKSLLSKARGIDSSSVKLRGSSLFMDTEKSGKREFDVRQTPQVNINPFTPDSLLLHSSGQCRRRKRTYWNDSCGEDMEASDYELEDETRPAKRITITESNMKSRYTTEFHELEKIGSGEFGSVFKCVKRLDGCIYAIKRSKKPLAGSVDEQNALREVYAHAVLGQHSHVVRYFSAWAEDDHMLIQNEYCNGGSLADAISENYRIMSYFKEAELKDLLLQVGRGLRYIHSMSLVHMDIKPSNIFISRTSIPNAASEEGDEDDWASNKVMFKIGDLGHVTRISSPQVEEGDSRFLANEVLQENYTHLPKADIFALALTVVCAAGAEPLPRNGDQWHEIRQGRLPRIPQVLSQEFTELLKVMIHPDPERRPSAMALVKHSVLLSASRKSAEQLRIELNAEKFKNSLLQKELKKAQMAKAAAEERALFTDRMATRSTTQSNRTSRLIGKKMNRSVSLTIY
pIC50: −log10 of the molar value.

>  <compound>
CN1CCN(c2ccc(Nc3ncc4cnn(-c5ccc6c(c5)C(=O)NCC6)c4n3)cc2)CC1 [Compound 38]

>  <assayed system>
UniProt P30291

>  <pIC50>
7.00 to 8.00

$$$$
>  <compound>
CN1CCN(c2ccc(Nc3ncc4cnn(-c5cncc(N=S(C)(C)=O)c5)c4n3)cc2)CC1 [Compound 31]

>  <assayed system>
UniProt P30291

>  <pIC50>
7.00 to 8.00

$$$$
>  <compound>
CN1CCN(c2ccc(Nc3ncc4c(=O)n(C)n(-c5cccc(N=S(C)(C)=O)n5)c4n3)cc2)CC1 [Compound 27A]

>  <assayed system>
UniProt P30291

>  <pIC50>
8.00 to 9.00

$$$$
>  <compound>
CS(C)(=O)=Nc1cccc(-n2ncc3cnc(Nc4ccc(CC5C(=O)C6CCN5CC6)cc4)nc32)n1 (stereo not shown) [Compound 15]

>  <assayed system>
UniProt P30291

>  <pIC50>
7.00 to 8.00

$$$$

====

Measured AUC(0-inf) of individual entries
# assay comment: Compound pharmacokinetics in mice
# Type: in vivo
# conditions: mouse; male ICR mice, oral gavage 10 mg/kg, plasma; read-out: AUCinf—Pred
measurement label: AUC(0-inf)

>  <compound>
CN1CCN(c2ccc(Nc3ncc4cnn(-c5cccc(N=S(C)(C)=O)n5)c4n3)cc2)CC1

>  <measurement label>
AUC(0-inf)

>  <value measured>
260 ng·h/mL

$$$$
>  <compound>
CN1CCN(c2ccc(Nc3ncc4cnn(-c5ccc6c(c5)C(C)(O)CO6)c4n3)cc2)CC1 (stereo not shown)

>  <measurement label>
AUC(0-inf)

>  <value measured>
493 ng·h/mL

$$$$
>  <compound>
CN1CCN(c2ccc(Nc3ncc4cnn(-c5ccnc(N=S(C)(C)=O)c5)c4n3)cc2)CC1

>  <measurement label>
AUC(0-inf)

>  <value measured>
743 ng·h/mL

$$$$
>  <compound>
C=CCn1c(=O)c2cnc(Nc3ccc(N4CCN(C)CC4)cc3)nc2n1-c1cccc(C(C)(C)O)n1 [AZD-1775, reference compound]

>  <measurement label>
AUC(0-inf)

>  <value measured>
500 ng·h/mL

$$$$

====

# assayed system: CYP2C9 (Homo sapiens)
# Sequence (P11712 whole entry): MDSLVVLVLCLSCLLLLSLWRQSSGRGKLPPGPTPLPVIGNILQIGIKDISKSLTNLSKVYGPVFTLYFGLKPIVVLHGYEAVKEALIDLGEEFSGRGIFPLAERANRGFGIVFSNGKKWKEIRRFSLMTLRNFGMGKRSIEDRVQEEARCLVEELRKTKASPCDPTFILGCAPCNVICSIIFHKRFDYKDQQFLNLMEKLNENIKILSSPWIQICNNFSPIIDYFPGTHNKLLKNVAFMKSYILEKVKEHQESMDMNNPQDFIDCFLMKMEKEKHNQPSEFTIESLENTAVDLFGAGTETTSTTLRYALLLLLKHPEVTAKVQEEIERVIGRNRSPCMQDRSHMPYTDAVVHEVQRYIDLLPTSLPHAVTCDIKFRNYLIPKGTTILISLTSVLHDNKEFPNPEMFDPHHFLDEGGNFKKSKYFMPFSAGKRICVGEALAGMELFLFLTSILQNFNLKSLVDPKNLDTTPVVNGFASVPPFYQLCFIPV
# assay comment: Inhibition of cytochrome P450, CYP2C9
# Format: in vitro ADME
# conditions: CYP2C9 enzyme, pH 7.4, probe BOMCC, compound concentration 10 μM, read-out: CYP inhibition/% 2C9

>  <molecule>
CN1CCN(c2ccc(Nc3ncc4cnn(-c5cccc(N=S(C)(C)=O)n5)c4n3)cc2)CC1 [Compound 1]

>  <assayed system>
CYP2C9 (Homo sapiens)

>  <inhibition at 30 min, 10 µM [%]>
18.6

$$$$
>  <molecule>
CS(C)(=O)=Nc1cccc(-n2ncc3cnc(Nc4ccc(N5CCOCC5)cc4)nc32)n1 [Compound 6]

>  <assayed system>
CYP2C9 (Homo sapiens)

>  <inhibition at 30 min, 10 µM [%]>
13.1

$$$$
>  <molecule>
CN1CCN(c2ccc(Nc3ncc4cnn(-c5cccc(C(C)(C)O)n5)c4n3)cc2)CC1 [Compound 2]

>  <assayed system>
CYP2C9 (Homo sapiens)

>  <inhibition at 30 min, 10 µM [%]>
-16

$$$$

====

# assay comment: Solubility test
# Assay type: physicochemical
# conditions: aqueous buffer, thermodynamic from solid; buffer solution, shaken at constant temperature 24 h
measurement label: solubility at 24 h (µg/mL)

>  <compound>
Cc1cc(Nc2ncc3cnn(-c4cccc(N=S(C)(C)=O)n4)c3n2)ccc1N1CCN(C)CC1 [Compound 16]

>  <value measured>
350

$$$$
>  <compound>
CN1CCN(c2ccc(Nc3ncc4cnn(-c5cccc(C6(C#N)CC6)n5)c4n3)cc2)CC1 [Compound 3]

>  <value measured>
60

$$$$
>  <compound>
C=CCn1c(=O)c2cnc(Nc3ccc(N4CCN(C)CC4)cc3)nc2n1-c1cccc(C(C)(C)O)n1 [AZD-1775, reference compound]

>  <value measured>
30

$$$$
>  <compound>
CN1CCN(c2ccc(Nc3ncc4cnn(-c5cccc(N=S(C)(C)=O)n5)c4n3)cc2)CC1 [Compound 1]

>  <value measured>
120

$$$$
